The values you see were collected from patent US20170015742A1.

- Tested System: T1, human VEGF-A (human, UniProt P15692-4 27-191, limits assumed)
- T1 construct: also called huVEGF-A
- T1 sequence (P15692 other isoform, or with tags, fused parts or gaps limits assumed): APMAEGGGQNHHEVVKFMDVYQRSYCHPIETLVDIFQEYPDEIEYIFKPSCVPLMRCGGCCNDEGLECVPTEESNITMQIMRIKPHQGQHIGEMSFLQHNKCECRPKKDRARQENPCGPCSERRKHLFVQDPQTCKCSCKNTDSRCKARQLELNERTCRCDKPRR
- Test Details: SPR (Biacore), antibody captured by anti-human Fc, VEGF-A injected
Observed Property: pKd
One number for each entry, as −log10 of the molar value.

Consider the reported pKd for these binders:
hBDB-4G8.1 (antibody, V domains shown, Humanized IgG made from pHybE vectors in HEK293 cells) VH: EVQLVQSGSELKKPGASVKVSCKASGYTFTNYGMYWVRQAPGQGLEWMGWINTETGKPTYADDFKGRFVFSLDTSVSTAYLQISSLKAEDTAVYYCARTNYYYRSYIFYFDYWGQGTMVTVSS VL: AIQLTQSPSSLSASVGDRVTITCRASESVSTHMHWYQQKPGKAPKLLIYGASNLESGVPSRFSGSGSGTDFTLTISSLQPEDFATYYCQQSWNDPFTFGQGTKLEIK | 11.24
hBDB-4G8.7 (antibody, V domains shown, Humanized IgG made from pHybE vectors in HEK293 cells) VH: EVQLVQSGAEVKKPGASVKVSCKASGYTFTNYGMYWVRQAPGQGLEWMGWINTETGKPTYADDFKGRVTMTTDTSTSTAYMELRSLRSDDTAVYYCARTNYYYRSYIFYFDYWGQGTMVTVSS VL: AIQLTQSPSSLSASVGDRVTITCRASESVSTHMHWYQQKPGKAPKLLIYGASNLESGVPSRFSGSGSGTDFTLTISSLQPEDFATYYCQQSWNDPFTFGQGTKLEIK | 10.47
hBEW-9A8.12 (antibody, V domains shown, Humanized IgG made from pHybE vectors in HEK293 cells) VH: EVQLVQSGAEVKKPGASVKVSCKASGYTFTNYGMYWVRQAPGQGLEWMGWINTETGKPIYADDFKGRVTMTTDTSTSTAYMELRSLRSDDTAVYYCARVDYDGSFWFAYWGQGTLVTVSS VL: DTQLTQSPSSLSASVGDRVTITCRASESVSTVIHWYQQKPGKQPKLLIHGASNLESGVPSRFSGSGSGTDFTLTISSLQPEDFATYFCQQHWNDPPTFGQGTKLEIK | 10.82
hBDB-4G8.10 (antibody, V domains shown, Humanized IgG made from pHybE vectors in HEK293 cells) VH: EIQLVQSGAEVKKPGASVKVSCKASGYTFTNYGMYWVRQAPGQGLEYMGWINTETGKPTYADDFKGRFTFTLDTSTSTAYMELRSLRSDDTAVYFCARTNYYYRSYIFYFDYWGQGTMVTVSS VL: AIQLTQSPSSLSASVGDRVTITCRASESVSTHMHWYQQKPGKAPKLLIYGASNLESGVPSRFSGSGSGTDFTLTISSLQPEDFATYYCQQSWNDPFTFGQGTKLEIK | 11.09

Next:
# get_value(readout='pKd', item= hBEW-5C3.1 (antibody, V domains shown, Humanized IgG made from pHybE vectors in HEK293 cells) VH: EIQLVQSGSELKKPGASVKVSCKASGYTFTNYGVYWVKQAPGQGLEYMGWINTETGKPTYADDFKGRFVFSLDTSVSTAYLQISSLKAEDTAVYYCARARQLDWFVYWGQGTLVTVSS VL: DTVLTQSPATLSLSPGERATLSCRARESLTTSLSWFQQKPGQQPRLLIYGASKLESGVPARFSGSGSGTDFTLTISSLEPEDFAVYFCQQSWYDPPTFGGGTKVEIK ) 11.22
